# Test system: Mycobacterium
# experimentDescription: Antibacterial activity against Mycobacterium luteum B-917 at 0.1% after 24 hrs by agar disk diffusion technique
# Format: functional
Would you mind telling me the reported diameter of the inhibition zone (DIZ) of each entry?
Provide only the numeric value, understood in mm.

Input line: Give its diameter of the inhibition zone (DIZ) value. Item: CCCCOC(=O)CCSC1=C(Sc2c(Cl)c(Cl)c(Cl)c(Cl)c2Cl)C(=O)c2ccccc2C1=O
Output line: 0

Input line: Please answer likewise for COC(=O)CCSC1=C(N2CCC3(CC2)OCCO3)C(=O)c2ccccc2C1=O
Output line: 0

Input line: Please answer likewise for O=C1C(Sc2c(Cl)c(Cl)c(Cl)c(Cl)c2Cl)=C(N2CCN(c3ccc(F)cc3)CC2)C(=O)c2ccccc21
Output line: 0

Input line: Please answer likewise for CCCCOC(=O)CCSC1=C(N2CCC3(CC2)OCCO3)C(=O)c2ccccc2C1=O
Output line: 0

Input line: Please answer likewise for COc1ccc(CSC2=C(SCc3ccc(OC)cc3)C(=O)c3ccccc3C2=O)cc1
Output line: 0

Input line: Please answer likewise for COC(=O)CCSC1=C(Sc2c(Cl)c(Cl)c(Cl)c(Cl)c2Cl)C(=O)c2ccccc2C1=O
Output line: 6

Input line: Please answer likewise for O=C1C(Cl)=C(N2CCN(c3ccc([N+](=O)[O-])cc3)CC2)C(=O)c2ccccc21
Output line: 0

Input line: Please answer likewise for O=C1C(Sc2c(Cl)c(Cl)c(Cl)c(Cl)c2Cl)=C(N2CCOCC2)C(=O)c2ccccc21
Output line: 0

Input line: Please answer likewise for O=C1C(Sc2c(Cl)c(Cl)c(Cl)c(Cl)c2Cl)=C(N2CCSCC2)C(=O)c2ccccc21
Output line: 0

Input line: Please answer likewise for CCOC1=C(N(CC)Cc2ccncc2)C(=O)c2ccccc2C1=O
Output line: 0

Input line: Please answer likewise for O=C1C(Sc2cc(Cl)ccc2Cl)=C(Sc2cc(Cl)ccc2Cl)C(=O)c2ccccc21
Output line: 0

Input line: Please answer likewise for CC1CCC(C(C)(C)SC2=C(SC(C)(C)C3CCC(C)CC3=O)C(=O)c3ccccc3C2=O)C(=O)C1 (centres undefined)
Output line: 0

Input line: Please answer likewise for CCCCOC(=O)CCSC1=C(Sc2ccc(O)cc2)C(=O)c2ccccc2C1=O
Output line: 0

Input line: Please answer likewise for CCCCOC(=O)CCSC1=C(SCCC(=O)OCCCC)C(=O)c2ccccc2C1=O
Output line: 0

Input line: Please answer likewise for O=C1C(Cl)=C(N2CCN(CCO)CC2)C(=O)c2ccccc21
Output line: 16

Input line: Please answer likewise for CN[C@H](CC(C)C)C(=O)N[C@H]1C(=O)N[C@@H](CC(N)=O)C(=O)N[C@H]2C(=O)N[C@H]3C(=O)N[C@H](C(=O)N[C@H](C(=O)O)c4cc(O)cc(O)c4-c4cc3ccc4O)[C@H](O)c3ccc(c(Cl)c3)Oc3cc2cc(c3O[C@@H]2O[C@H](CO)[C@@H](O)[C@H](O)[C@H]2O[C@H]2C[C@](C)(N)[C@H](O)[C@H](C)O2)Oc2ccc(cc2Cl)[C@H]1O
Output line: 18

Input line: Please answer likewise for O=C1C(Sc2c(Cl)c(Cl)c(Cl)c(Cl)c2Cl)=C(N2CCCCC2)C(=O)c2ccccc21
Output line: 0

Input line: Please answer likewise for CSc1ccc(SC2=C(Sc3ccc(SC)cc3)C(=O)c3ccccc3C2=O)cc1
Output line: 8.7

Input line: Please answer likewise for O=C1C(Sc2c(Cl)c(Cl)c(Cl)c(Cl)c2Cl)=C(N2CCCC2)C(=O)c2ccccc21
Output line: 0

* * *

Would you mind telling me the reported diameter of the inhibition zone (DIZ) of each entry?
# Tested on: Yamadazyma tenuis
# experimentDescription: Antifungal activity against Candida tenuis VKM Y-70 at 0.5% after 48 to 72 hrs by agar disk diffusion technique
# Type: functional
Provide only the numeric value, understood in mm.

Input line: Give its diameter of the inhibition zone (DIZ) value. Item: COC(=O)CCSC1=C(N2CCC3(CC2)OCCO3)C(=O)c2ccccc2C1=O
Output line: 0

Input line: Please answer likewise for O=C1C(Sc2c(Cl)c(Cl)c(Cl)c(Cl)c2Cl)=C(N2CCSCC2)C(=O)c2ccccc21
Output line: 0

Input line: Please answer likewise for CCCCOC(=O)CCSC1=C(Sc2ccc(O)cc2)C(=O)c2ccccc2C1=O
Output line: 0

Input line: Please answer likewise for CCCCOC(=O)CCSC1=C(SCCC(=O)OCCCC)C(=O)c2ccccc2C1=O
Output line: 0

Input line: Please answer likewise for O=C1C(Cl)=C(N2CCN(CCO)CC2)C(=O)c2ccccc21
Output line: 0

Input line: Please answer likewise for O=C1C(Sc2c(Cl)c(Cl)c(Cl)c(Cl)c2Cl)=C(N2CCCCC2)C(=O)c2ccccc21
Output line: 0

Input line: Please answer likewise for O=C1C(Sc2c(Cl)c(Cl)c(Cl)c(Cl)c2Cl)=C(N2CCCC2)C(=O)c2ccccc21
Output line: 0

Input line: Please answer likewise for O=C1C(Sc2c(Cl)c(Cl)c(Cl)c(Cl)c2Cl)=C(N2CCOCC2)C(=O)c2ccccc21
Output line: 0

Input line: Please answer likewise for O=C1C(Sc2c(Cl)c(Cl)c(Cl)c(Cl)c2Cl)=C(N2CCN(c3ccc(F)cc3)CC2)C(=O)c2ccccc21
Output line: 0

Input line: Please answer likewise for CC1CCC(C(C)(C)SC2=C(SC(C)(C)C3CCC(C)CC3=O)C(=O)c3ccccc3C2=O)C(=O)C1 (stereo not drawn)
Output line: 7.4

Input line: Please answer likewise for CCCCOC(=O)CCSC1=C(N2CCC3(CC2)OCCO3)C(=O)c2ccccc2C1=O
Output line: 0

Input line: Please answer likewise for CSc1ccc(SC2=C(Sc3ccc(SC)cc3)C(=O)c3ccccc3C2=O)cc1
Output line: 0

Input line: Please answer likewise for COC(=O)CCSC1=C(Sc2c(Cl)c(Cl)c(Cl)c(Cl)c2Cl)C(=O)c2ccccc2C1=O
Output line: 0

Input line: Please answer likewise for O=C1C(Sc2cc(Cl)ccc2Cl)=C(Sc2cc(Cl)ccc2Cl)C(=O)c2ccccc21
Output line: 7

Input line: Please answer likewise for CCCCOC(=O)CCSC1=C(Sc2c(Cl)c(Cl)c(Cl)c(Cl)c2Cl)C(=O)c2ccccc2C1=O
Output line: 0

Input line: Please answer likewise for O=C1C(Cl)=C(N2CCN(c3ccc([N+](=O)[O-])cc3)CC2)C(=O)c2ccccc21
Output line: 15.7

Input line: Please answer likewise for COc1ccc(CSC2=C(SCc3ccc(OC)cc3)C(=O)c3ccccc3C2=O)cc1
Output line: 11.7

Input line: Please answer likewise for CCOC1=C(N(CC)Cc2ccncc2)C(=O)c2ccccc2C1=O
Output line: 20

* * *

# Tested on: Staphylococcus aureus
# experimentDescription: Antibacterial activity against Staphylococcus aureus 209-P at 0.5% after 24 hrs by agar disk diffusion technique
# Assay type: functional
measurementName: diameter of the inhibition zone (DIZ) (mm)
Provide only the numeric value, understood in mm.

Input line: Give its diameter of the inhibition zone (DIZ) value. Item: O=C1C(Sc2c(Cl)c(Cl)c(Cl)c(Cl)c2Cl)=C(N2CCSCC2)C(=O)c2ccccc21
Output line: 0

Input line: Please answer likewise for O=C1C(Sc2c(Cl)c(Cl)c(Cl)c(Cl)c2Cl)=C(N2CCCC2)C(=O)c2ccccc21
Output line: 0

Input line: Please answer likewise for CSc1ccc(SC2=C(Sc3ccc(SC)cc3)C(=O)c3ccccc3C2=O)cc1
Output line: 8.7

Input line: Please answer likewise for O=C1C(Cl)=C(N2CCN(CCO)CC2)C(=O)c2ccccc21
Output line: 20.7

* * *

# Tested on: Mycobacterium
# experimentDescription: Antibacterial activity against Mycobacterium luteum B-917 after 24 to 72 hrs by serial dilution technique
# Assay type: functional
Active and inactive are the calls of the source. No cut-off for these calls is given here.
measurementName: MIC

INSERT INTO assay_data (compound, reported) VALUES
  ('CCCCOC(=O)CCSC1=C(N2CCC3(CC2)OCCO3)C(=O)c2ccccc2C1=O', '125 mg/L'),
  ('CCOC1=C(N(CC)Cc2ccncc2)C(=O)c2ccccc2C1=O', '125 mg/L'),
  ('COC(=O)CCSC1=C(N2CCC3(CC2)OCCO3)C(=O)c2ccccc2C1=O', '250 mg/L'),
  ('O=C1C(Sc2c(Cl)c(Cl)c(Cl)c(Cl)c2Cl)=C(N2CCSCC2)C(=O)c2ccccc21', 'inactive'),
  ('O=C1C(Sc2c(Cl)c(Cl)c(Cl)c(Cl)c2Cl)=C(N2CCCCC2)C(=O)c2ccccc21', 'inactive');

Input line: Give its MIC value. Item: O=C1C(Sc2cc(Cl)ccc2Cl)=C(Sc2cc(Cl)ccc2Cl)C(=O)c2ccccc21
Output line: inactive

Input line: Please answer likewise for CC1CCC(C(C)(C)SC2=C(SC(C)(C)C3CCC(C)CC3=O)C(=O)c3ccccc3C2=O)C(=O)C1 (stereo not drawn)
Output line: 500 mg/L

Input line: Please answer likewise for O=C1C(Cl)=C(N2CCN(c3ccc([N+](=O)[O-])cc3)CC2)C(=O)c2ccccc21
Output line: inactive

Input line: Please answer likewise for COC(=O)CCSC1=C(Sc2c(Cl)c(Cl)c(Cl)c(Cl)c2Cl)C(=O)c2ccccc2C1=O
Output line: 15.6 mg/L

Input line: Please answer likewise for COc1ccc(CSC2=C(SCc3ccc(OC)cc3)C(=O)c3ccccc3C2=O)cc1
Output line: inactive

Input line: Please answer likewise for O=C1C(Cl)=C(N2CCN(CCO)CC2)C(=O)c2ccccc21
Output line: 31.2 mg/L

Input line: Please answer likewise for O=C1C(Sc2c(Cl)c(Cl)c(Cl)c(Cl)c2Cl)=C(N2CCN(c3ccc(F)cc3)CC2)C(=O)c2ccccc21
Output line: 125 mg/L

Input line: Please answer likewise for CSc1ccc(SC2=C(Sc3ccc(SC)cc3)C(=O)c3ccccc3C2=O)cc1
Output line: 125 mg/L

Input line: Please answer likewise for CCCCOC(=O)CCSC1=C(SCCC(=O)OCCCC)C(=O)c2ccccc2C1=O
Output line: inactive

Input line: Please answer likewise for CCCCOC(=O)CCSC1=C(Sc2c(Cl)c(Cl)c(Cl)c(Cl)c2Cl)C(=O)c2ccccc2C1=O
Output line: 125 mg/L

Input line: Please answer likewise for O=C1C(Sc2c(Cl)c(Cl)c(Cl)c(Cl)c2Cl)=C(N2CCOCC2)C(=O)c2ccccc21
Output line: inactive

Input line: Please answer likewise for O=C1C(Sc2c(Cl)c(Cl)c(Cl)c(Cl)c2Cl)=C(N2CCCC2)C(=O)c2ccccc21
Output line: inactive

Input line: Please answer likewise for CCCCOC(=O)CCSC1=C(Sc2ccc(O)cc2)C(=O)c2ccccc2C1=O
Output line: inactive
